Numbers sourced from patent US20160114035A1.

Measured pIC50 of individual entries
- experimental.system: DRB1*0701
- method.summary: binding to purified HLA
pIC50: −log10 of the molar value.
endpoint.name: pIC50

binder	endpoint.value
AAAYFVAAFTLHAAA [Y4.F9.H12]	7.11
AAAWFVAANTLHAAA [W4.N9.H12]	7.37
AAAYFVAAWTLHAAA [Y4.H12]	7.26
AAAFFVAANTLHAAA [F4.N9.H12]	7.09
AAAKFVAAWTLKAAA [SEQ ID NO: 4]	7.31
AAAYFVAANTLHAAA [Y4.N9.H12]	7.31
AAAHFVAAWTLHAAA [H4.H12]	7.28
AAAFFVAANTLKADA [F4.N9.D14]	7.13
